- Protocol Summary: Toxicity (mice), I.G. (Table III)
- Assay type: in vivo
- Assay Setup: mouse, in vivo, po; mice, I.G.
Property Label: LD50

INSERT INTO assay_data (molecule, observed_value) VALUES
  ('CC(c1ccc(Cl)cc1)(c1ccccn1)N1CCN(CC=Cc2ccccc2)CC1 (stereo not shown)', '500 mg/kg');

* * *

- Protocol Summary: Acute toxicity on mice, orally and intraperitoneally (Table I)
- Assay type: in vivo
- Assay Setup: mouse, in vivo, ip, I.P., suspended in gum syrup or labrafil
Property Label: LD50

INSERT INTO measurements (molecule, observed_value) VALUES
  ('O=C(C=Cc1ccccc1)N1CCN(C(c2ccccc2)C2CC2)CC1 (stereo not shown)', '1480 mg/kg');

* * *

- Protocol Summary: Acute toxicity on mice, orally and intraperitoneally (Table I)
- Assay type: in vivo
- Assay Setup: mouse, in vivo, po, P.O., suspended in gum syrup or labrafil
Recorded LD50 values for a group of compounds are listed next.
Property Label: LD50 (mg/kg)

INSERT INTO assay_data (compound, property_label, bound_sign, observed_value) VALUES
  ('C(=Cc1ccccc1)CN1CCN(C(c2ccccc2)C2CC2)CC1 (centres unmarked) [--CH2 --]', 'LD50', '=', 570),
  ('O=C(C=Cc1ccccc1)N1CCN(C(c2ccccc2)C2CC2)CC1 (centres unmarked) [C = O]', 'LD50', '>', 4000);

* * *

- Protocol Summary: Toxicity (mice), I.G. (Table III)
- Format: in vivo
- Assay Setup: mouse, in vivo, po
Counter-ions that a name gives are not always drawn.
Property Label: LD50 (mg/kg)

INSERT INTO assay_data (compound, quantity_unit, observed_value) VALUES
  ('Fc1ccc(C(c2ccccn2)N2CCN(CC=Cc3ccccc3)CC2)cc1 (stereo not drawn)', 'mg/kg', 400),
  ('Clc1ccc(C(c2ccccn2)N2CCN(CC=Cc3ccccc3)CC2)cc1 (stereo not drawn)', 'mg/kg', 1180),
  ('Clc1ccc(C(c2ccccn2)N2CCN(CC=Cc3ccccc3)CC2)c(Cl)c1 (stereo not drawn) [trihydrochloride]', 'mg/kg', 600);
